# Measurement protocol: Clarity / appearance of fill composition
# Format: physicochemical
# Run parameters: 60% w/w SAE-CD; normal dose of drug in 1 gram
Structures can show the parent of a compound that is named as a salt.
Measurement name: Fill composition appearance

C[C@]12CC[C@H]3[C@@H](CCC4=CC(=O)CC[C@@]43C)[C@@H]1CC[C@@H]2O [Testosterone] ... clear solution
C[C@]12CCC(=O)C=C1CC[C@@H]1[C@@H]2[C@@H](O)C[C@@]2(C)[C@H]1CC[C@]2(O)C(=O)CO [Hydrocortisone] ... clear solution
C[C@]12CCC(=O)C=C1CC[C@@H]1[C@@H]2CC[C@@]2(C)[C@H]1CC[C@]2(C)O [Methyltestosterone] ... clear solution
CN[C@H]1CC[C@@H](c2ccc(Cl)c(Cl)c2)c2ccccc21 [Sertraline HCl] ... solution
CC(C)(C(=O)O)c1ccc(C(O)CCCN2CCC(C(O)(c3ccccc3)c3ccccc3)CC2)cc1 (centres unmarked) [Fexofenadine HCl] ... solution
COc1ccc2c(c1)c(CC(=O)O)c(C)n2C(=O)c1ccc(Cl)cc1 [Indomethacin] ... solution

Please find the next compound below.
Field request: Fill composition appearance | item: COc1ccccc1OCCNCC(O)COc1cccc2[nH]c3ccccc3c12 (centres unmarked) [Carvedilol]
solution
